Target: T1, HLA-A*01:01 (human)
T1 construct: Peptide-receptive MHC class I monomer made by UV cleavage of a UV-sensitive ligand
Assay: UV ligand exchange ELISA; exchange yield grade
attribute_measured: peptide exchange yield

1. WIGDKSFEY : 20 to 50%
2. GTDVLSTRY : 50 to 75%
3. HVDQDLTTY : 20 to 50%
4. STDSAGSSY : > 75%
5. YTDKKSIIY : 50 to 75%
6. LTDSEKGNSY : 50 to 75%
7. AAADHHSLY : 50 to 75%
8. ISEAGKDLLY : 50 to 75%
9. FTDIDGQVY : 50 to 75%
10. YINPAKLTPY : 20 to 50%
11. YSDIGHLL : 20 to 50%
12. SVADIRNAY : 20 to 50%
13. VTEEPQRLFY : > 75%
14. LTEGHSGNYY : 50 to 75%
15. RSDPGGGGLAY : 50 to 75%
16. ATDIVDSQY : 50 to 75%
